All figures here come from the supplement of paper PMC10567573.

B1: INTS3 (parent)
chain: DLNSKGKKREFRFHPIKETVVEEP

- Variants of: B1
- Test protocol: protein stability index of a GFP-peptide fusion (GPS, HEK-293T) (PSI 1-6); higher = more stable;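 further: lentivirally expressed fusions sorted by FACS into six bins by GFP to DsRed ratio, PSI derived from sequencing read proportions per bin multiplied by bin number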
- Run parameters: c terminus: a fixed tail appended
Measurement name: protein stability index
Format: numeric value only, no unit, no commentary.

>  <Variant identifier>
V21S

>  <Measurement name>
protein stability index

>  <Reported result>
2.1

$$$$

INPUT: Which measured protein stability index value corresponds to D1K ?
OUTPUT: 2.23

INPUT: Same question, H14R this time
OUTPUT: 3.88

INPUT: Further, for F13N ?
OUTPUT: 4.65

INPUT: Then what about the variant E18F ?
OUTPUT: 2.1

INPUT: Quick one: E18I
OUTPUT: 1.96

INPUT: Follow-up item: D1Q
OUTPUT: 2.02
